biological target: DNA polymerase kappa (Homo sapiens) (UniProt Q9UBT6); test: qHTS for Inhibitors of Polymerase Kappa: Confirmatory Assay for Cherry-picked Compounds (AID 720501); conditions: purified Pol-kappa, fluorescent strand-displacement substrate; further: potency means the concentration at half of the fitted maximal effect
Sequence (Q9UBT6 whole entry, looked up): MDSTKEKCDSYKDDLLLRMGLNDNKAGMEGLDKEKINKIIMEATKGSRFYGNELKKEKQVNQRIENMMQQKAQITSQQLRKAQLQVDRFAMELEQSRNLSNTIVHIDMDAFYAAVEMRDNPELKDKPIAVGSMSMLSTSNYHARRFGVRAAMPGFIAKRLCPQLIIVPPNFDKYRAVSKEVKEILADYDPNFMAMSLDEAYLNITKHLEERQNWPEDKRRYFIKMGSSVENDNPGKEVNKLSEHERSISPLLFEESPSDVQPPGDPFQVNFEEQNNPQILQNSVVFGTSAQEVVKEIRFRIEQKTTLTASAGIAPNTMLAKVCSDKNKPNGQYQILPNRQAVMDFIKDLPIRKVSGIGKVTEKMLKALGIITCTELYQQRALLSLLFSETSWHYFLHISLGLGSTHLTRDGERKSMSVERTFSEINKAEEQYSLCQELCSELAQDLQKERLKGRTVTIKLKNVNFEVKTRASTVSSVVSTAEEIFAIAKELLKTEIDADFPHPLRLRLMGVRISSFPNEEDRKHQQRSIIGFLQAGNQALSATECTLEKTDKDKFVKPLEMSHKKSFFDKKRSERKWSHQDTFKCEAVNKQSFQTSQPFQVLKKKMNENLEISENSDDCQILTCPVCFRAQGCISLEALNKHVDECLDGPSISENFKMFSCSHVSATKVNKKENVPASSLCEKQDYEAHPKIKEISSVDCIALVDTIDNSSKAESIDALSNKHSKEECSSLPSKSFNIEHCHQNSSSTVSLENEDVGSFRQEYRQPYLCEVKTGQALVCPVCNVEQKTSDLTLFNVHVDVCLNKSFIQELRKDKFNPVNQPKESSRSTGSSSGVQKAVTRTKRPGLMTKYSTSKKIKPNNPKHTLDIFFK
The list shows a part of the results. Results filed as inconclusive are left out. Active and inactive are the calls of the source. The call rests on the fitted dose curve; in most records, active means well fitted inhibition curve with a large enough effect; inconclusive means small, poorly fitted or top-dose-only effect, or another doubt; inactive means no such curve, though single readings can be large or run the other way.
ATTRIBUTE MEASURED: Potency

compound_structure=COc1cc(/C=C2/C(=O)NN(c3ccc(F)cc3)C2=O)cc([N+](=O)[O-])c1O tested_target="DNA polymerase kappa (Homo sapiens) (UniProt Q9UBT6)" result="37.7 µM (active)"
compound_structure=O=C1NN(c2ccccc2)C(=O)/C1=C/c1ccc(-c2cccc(C(=O)O)c2)o1 tested_target="DNA polymerase kappa (Homo sapiens) (UniProt Q9UBT6)" result="16.8 µM (active)"
compound_structure=COc1ccc2[nH]c3c(C)c4cc[n+](C)cc4c(C)c3c2c1 tested_target="DNA polymerase kappa (Homo sapiens) (UniProt Q9UBT6)" result="1.34 µM (active)"

* * *

molecular target: Cytochrome P450 3A4 (Homo sapiens) (UniProt P08684); assay: qHTS Assay for Inhibitors and Substrates of Cytochrome P450 3A4 (AID 884); conditions: recombinant CYP3A4, Luciferin-PPXE luminescence; series mostly up to 57.1 µM; further: nearly all actives have a fitted effect of over 50% in size
Sequence (P08684 whole entry, looked up): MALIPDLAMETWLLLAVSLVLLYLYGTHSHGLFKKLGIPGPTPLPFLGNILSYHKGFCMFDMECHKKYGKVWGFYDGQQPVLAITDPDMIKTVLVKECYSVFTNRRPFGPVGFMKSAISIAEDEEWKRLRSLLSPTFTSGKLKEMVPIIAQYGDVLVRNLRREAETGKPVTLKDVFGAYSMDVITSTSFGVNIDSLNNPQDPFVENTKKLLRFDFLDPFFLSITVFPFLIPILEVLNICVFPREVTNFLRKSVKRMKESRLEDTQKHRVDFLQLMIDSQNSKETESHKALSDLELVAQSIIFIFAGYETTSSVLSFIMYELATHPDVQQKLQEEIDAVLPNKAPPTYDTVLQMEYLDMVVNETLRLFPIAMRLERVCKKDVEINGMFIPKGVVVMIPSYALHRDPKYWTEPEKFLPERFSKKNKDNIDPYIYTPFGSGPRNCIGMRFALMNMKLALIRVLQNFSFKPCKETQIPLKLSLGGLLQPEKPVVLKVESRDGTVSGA
Results filed as inconclusive are left out. The source made the active and inactive calls. The call rests on the fitted dose curve; in most records, active means well fitted inhibition curve with a large enough effect; inconclusive means small, poorly fitted or top-dose-only effect; inactive means no such curve, though single readings can be large or run the other way.
Classes used: active, inactive

compound=COC(=O)[C@@H]1C[C@@]2(O)[C@H](O)[C@H](O)[C@H](O)C[C@H]2N1Cc1ccc(C)s1 tested_target="Cytochrome P450 3A4 (Homo sapiens) (UniProt P08684)" assigned_class=inactive
compound="CC(=O)OCC1OC(C#CCCc2ccccc2)C=CC1OC(C)=O (centres undefined)" tested_target="Cytochrome P450 3A4 (Homo sapiens) (UniProt P08684)" assigned_class=active
compound="COC(=O)c1ccc(C(/C=C/[C@@H](C)C(=O)NCCc2c[nH]c3ccccc23)NC(=O)OCc2ccccc2)cc1 (some centres undefined)" tested_target="Cytochrome P450 3A4 (Homo sapiens) (UniProt P08684)" assigned_class=active
compound="CC1(C)CC[C@]2(C(=O)O)CC[C@@]3(C)C(=CCC4[C@@]5(C)CCC(O)C(C)(C)C5CC[C@@]43C)C2C1 (some centres undefined)" tested_target="Cytochrome P450 3A4 (Homo sapiens) (UniProt P08684)" assigned_class=inactive
compound=CC(=O)c1ccsc1B(O)O tested_target="Cytochrome P450 3A4 (Homo sapiens) (UniProt P08684)" assigned_class=inactive
compound="COc1ccc2c(c1OC)C(Cc1ccccc1)N1CCc3cc4c(cc3C1=C2)OCO4 (centres undefined)" tested_target="Cytochrome P450 3A4 (Homo sapiens) (UniProt P08684)" assigned_class=active
compound=C=C(CC1([C@@H](NP(=O)(c2ccccc2)c2ccccc2)[C@H]2C[C@@H]2CCCC)CC1)c1ccccc1 tested_target="Cytochrome P450 3A4 (Homo sapiens) (UniProt P08684)" assigned_class=active
compound="COC(=O)C1OC(=O)C2OC23[C@]2(C)C(OC(C)=O)CC4C(C)(C)C(=O)CC[C@]4(C)C2CC[C@@]13C (some centres undefined)" tested_target="Cytochrome P450 3A4 (Homo sapiens) (UniProt P08684)" assigned_class=inactive
compound=COc1ccc(O[C@H]2C=C[C@@H](c3ccccc3)O[C@@H]2CO/N=C(\C)CCN2CCCCc3nc(C)c(C)cc32)cc1 tested_target="Cytochrome P450 3A4 (Homo sapiens) (UniProt P08684)" assigned_class=active
compound=CCC1=C2CC[C@H]3C(=O)N(CC)C(=O)[C@H]3[C@H]2[C@@]2(Cc3ccccc3)C(=NCC3CC3)OC(=O)N2C1=O tested_target="Cytochrome P450 3A4 (Homo sapiens) (UniProt P08684)" assigned_class=active
compound="CC(=O)c1ccc(OC2C=CC(C#Cc3ccc(Br)cc3)OC2CO)cc1 (centres undefined)" tested_target="Cytochrome P450 3A4 (Homo sapiens) (UniProt P08684)" assigned_class=active
compound=CCC1=C(OC(=O)N(CC)CC)N2C(=O)OC(=NCC(=O)OC)[C@]2(Cc2ccccc2)[C@H]2C1=CC[C@H]1C(=O)NC(=O)[C@H]12 tested_target="Cytochrome P450 3A4 (Homo sapiens) (UniProt P08684)" assigned_class=active
compound=Cn1c(N)c(C(=O)COC(=O)c2cc(C(F)(F)F)nc3c(C(F)(F)F)cccc23)c(=O)n(C)c1=O tested_target="Cytochrome P450 3A4 (Homo sapiens) (UniProt P08684)" assigned_class=inactive
compound=CCC1=C(OC(=O)N(CC)CC)N2C(=O)OC(=NCC3CC3)[C@]2(Cc2ccccc2)[C@H]2C1=CC[C@H]1C(=O)N(CC)C(=O)[C@H]12 tested_target="Cytochrome P450 3A4 (Homo sapiens) (UniProt P08684)" assigned_class=active
compound=C[C@@H]1C=C[C@](Cc2ccccc2)(C(=O)NCCN2CCOCC2)N1C(=O)c1ccccc1 tested_target="Cytochrome P450 3A4 (Homo sapiens) (UniProt P08684)" assigned_class=active
compound=C/C(CCC(=O)OC[C@@H]1O[C@H](C#Cc2ccccc2)C=C[C@@H]1Oc1ccc(C)cc1)=N/OC[C@@H](O)[C@H]1O[C@H]2OC(C)(C)O[C@H]2[C@@H]1O tested_target="Cytochrome P450 3A4 (Homo sapiens) (UniProt P08684)" assigned_class=active
compound=O=C(O)c1ccc(NS(=O)(=O)c2ccsc2C(=O)O)c(O)c1 tested_target="Cytochrome P450 3A4 (Homo sapiens) (UniProt P08684)" assigned_class=inactive
compound=CN1[C@H](Cc2ccccc2)C=C[C@]1(C)C(=O)NCC1CC1 tested_target="Cytochrome P450 3A4 (Homo sapiens) (UniProt P08684)" assigned_class=inactive
compound=CCC1=C2CC[C@H]3C(=O)N(c4ccccc4)C(=O)[C@H]3[C@H]2[C@@]2(Cc3ccccc3)C(=O)N(CC(=O)OC)C(=O)N2C1=O tested_target="Cytochrome P450 3A4 (Homo sapiens) (UniProt P08684)" assigned_class=active
compound="CN1C[C@@H]2C(c3ccc(Cl)nc3)C3(c4cccnc4)CC2(C3)[C@H]1c1ccccc1 (some centres undefined)" tested_target="Cytochrome P450 3A4 (Homo sapiens) (UniProt P08684)" assigned_class=active
compound="Nc1ncnc2c1nc(Br)n2C1OC(CO)C(O)C1O (centres undefined)" tested_target="Cytochrome P450 3A4 (Homo sapiens) (UniProt P08684)" assigned_class=inactive
compound="CC(C)CC1(C(=O)NCCc2c[nH]c3ccccc23)C=CCN1C(=O)c1ccccc1 (centres undefined)" tested_target="Cytochrome P450 3A4 (Homo sapiens) (UniProt P08684)" assigned_class=active
compound=COc1ccc2c(c1)OC/C(=C/c1ccc(OC)c(OC)c1)C2=O tested_target="Cytochrome P450 3A4 (Homo sapiens) (UniProt P08684)" assigned_class=active
compound=COCCNC(=O)[C@@]1(C)C=C[C@@H](Cc2ccccc2)N1C(=O)c1ccccc1 tested_target="Cytochrome P450 3A4 (Homo sapiens) (UniProt P08684)" assigned_class=active

Value source: PubChem BioAssay (NCATS)
